Where these numbers come from: patent US9340577B2

system name: DRB1*1302 (Homo sapiens, UniProt P01903+P01911, A100E/A169T/K41T/L162R/M171V/P40S/Q125H/Q178H/Q39Y/Q99D/R42S/S66N/T262R/V115G/W38E/Y61H)
Sequence (P01903 26-254 limits assumed, other chains not shown): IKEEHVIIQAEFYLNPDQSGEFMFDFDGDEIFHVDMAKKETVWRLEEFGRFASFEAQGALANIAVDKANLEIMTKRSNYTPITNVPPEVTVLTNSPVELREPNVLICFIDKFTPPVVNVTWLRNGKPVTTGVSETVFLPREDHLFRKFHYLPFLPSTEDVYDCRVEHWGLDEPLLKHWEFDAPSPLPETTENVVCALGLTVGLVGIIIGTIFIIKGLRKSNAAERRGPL
method summary: biochemical
Format: binding
No end group written: not given here.
Please respond with reported IC50 for every item in the list.
Reply with just the number (in nM).

Which IC50 value is on record for EVQIALESLSTTIYN [Peptide 90.0231] ?
4.3

Which IC50 value is on record for VDFIDTQLSICEQAE [Peptide 89.0078] ?
1550

Which IC50 value is on record for WCIIGMGVTPSVAEG [Peptide 89.0097] ?
2090

Which IC50 value is on record for TPEWIQRQTVLQHSF [Peptide 89.0010] ?
2100

Which IC50 value is on record for YKTLFVDVTSTYHWT [Peptide 90.0241] ?
71

Which IC50 value is on record for QHSFNDDIFDLSEMI [Peptide 90.0152] ?
17

Which IC50 value is on record for LKGDANILKCLRYRL [Peptide 1601.26] ?
6900

Which IC50 value is on record for FKYFKEDAAKYSKTQ [Peptide 90.0206] ?
1700

Which IC50 value is on record for GKSYFGMSLISFLQG [Peptide 89.0056] ?
1340

Which IC50 value is on record for DWVMAIFGVNPTVAE [Peptide 89.0079] ?
60

Which IC50 value is on record for QQQMFLGTVKIPPTV [Peptide 89.0187] ?
3340

Which IC50 value is on record for ESDMAFQYAQLADCN [Peptide 89.0085] ?
224

Which IC50 value is on record for RDSVDSAPILTAFNS [Peptide 89.0156] ?
25

Which IC50 value is on record for IHFLQGAIISFVNSN [Peptide 89.0089] ?
442

Which IC50 value is on record for NKALQAIELQLTLET [Peptide 89.0151] ?
1800

Which IC50 value is on record for SEVYDFVFADLRIVY [Peptide 1543.48] ?
46

Which IC50 value is on record for TNCMLIQPPKLRSTA [Peptide 89.0046] ?
5100

----------
Please respond with reported IC50 for every item in the list.
system name: A*0202 (Homo sapiens, UniProt P04439, D140Y/D185E/D98H/E176V/E277Q/G131W/G231S/I119L/I121R/I166T/I218V/L180W/L300P/L318F/N151K/N90K/P208A/P217A/Q67R/Q86G/Q94H/R138H/R169H/T345S)
method summary: biochemical
Assay type: binding
No end group written: not given here.

Which IC50 value is on record for LTFWNPPTV [Peptide 9013.0006] ?
0.017 µM

Which IC50 value is on record for YTNWGEIYI [Peptide 1578.49] ?
0.01 µM

Which IC50 value is on record for IQGAVISFV [Peptide 1578.13] ?
0.012 µM

Which IC50 value is on record for ILNDTGFYTL [Peptide 9013.0150] ?
0.0021 µM

Which IC50 value is on record for RMLQHLLFI [Peptide 1545.04] ?
0.01 µM

Which IC50 value is on record for YTYYRPGVNV [Peptide 9013.0208] ?
0.0056 µM

Which IC50 value is on record for NLTVNNSGSYT [Peptide 9013.0303] ?
> 20 µM
